molecular target: T1, recombinant BACE1 (BACE1 extracellular domain, R&D Systems Cat#931-AS) (UniProt P56817 22-457); assay: SPR Biacore
T1 construct: extracellular domain; also called BACE1 extracellular domain protein
T1 sequence (P56817 22-457): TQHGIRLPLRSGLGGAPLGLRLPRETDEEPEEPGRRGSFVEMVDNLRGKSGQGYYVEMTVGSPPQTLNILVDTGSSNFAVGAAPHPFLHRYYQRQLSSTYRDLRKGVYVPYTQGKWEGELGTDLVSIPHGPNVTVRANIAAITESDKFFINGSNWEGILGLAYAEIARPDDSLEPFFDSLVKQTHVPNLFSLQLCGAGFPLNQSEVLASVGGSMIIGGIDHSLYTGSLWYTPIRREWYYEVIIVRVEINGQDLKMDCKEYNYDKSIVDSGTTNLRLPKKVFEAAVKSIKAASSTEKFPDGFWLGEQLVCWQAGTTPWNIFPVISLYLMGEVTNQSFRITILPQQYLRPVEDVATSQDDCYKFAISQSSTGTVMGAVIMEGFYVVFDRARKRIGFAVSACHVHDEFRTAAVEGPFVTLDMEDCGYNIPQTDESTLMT
value type: kon

Exercise: I have this binder here, 2H8.35 (antibody, human IgG1, V domains shown, human IgG1/kappa; also called 2H8_HCvar5 + 2H8_LCvar6) VH: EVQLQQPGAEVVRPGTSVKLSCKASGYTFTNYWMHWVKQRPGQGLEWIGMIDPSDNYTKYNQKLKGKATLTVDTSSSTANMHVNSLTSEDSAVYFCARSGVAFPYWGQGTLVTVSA VL: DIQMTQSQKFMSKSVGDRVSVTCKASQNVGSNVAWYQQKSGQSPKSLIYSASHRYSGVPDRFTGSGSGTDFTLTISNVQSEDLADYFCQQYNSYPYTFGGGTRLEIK , and I need its recorded kon.
Solution: 11200 M⁻¹ s⁻¹

Exercise: Proceed to 2H8.11 (antibody, human IgG1, V domains shown, human IgG1/kappa; also called 2H8_HCvar5 + 2H8_LCvar2) VH: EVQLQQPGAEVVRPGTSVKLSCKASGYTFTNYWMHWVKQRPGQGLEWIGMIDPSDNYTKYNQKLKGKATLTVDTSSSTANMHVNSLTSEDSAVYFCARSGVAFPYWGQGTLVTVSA VL: DIVMTQSQKFMSTSVGDRVSVTCKASQNVGTNVAWYQQKPGQSPKALIYSASHRYSGVPDRFTGSGSGTDFTLTISNVQSEDLAEYFCQQYNSYMYTFGGGTKLEIK
Solution: 13300 M⁻¹ s⁻¹

Exercise: Same again, this time with 2H8.09 (antibody, human IgG1, V domains shown, human IgG1/kappa; also called 2H8_HCvar3 + 2H8_LCvar2) VH: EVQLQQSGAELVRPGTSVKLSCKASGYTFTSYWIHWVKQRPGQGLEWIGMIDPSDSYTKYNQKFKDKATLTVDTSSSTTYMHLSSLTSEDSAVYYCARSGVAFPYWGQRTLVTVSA VL: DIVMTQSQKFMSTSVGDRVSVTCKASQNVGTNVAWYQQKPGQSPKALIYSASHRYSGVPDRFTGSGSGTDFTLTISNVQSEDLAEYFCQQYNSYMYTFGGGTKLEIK
Solution: 12500 M⁻¹ s⁻¹

Exercise: What do you have for 2H8.32 (antibody, human IgG1, V domains shown, human IgG1/kappa; also called 2H8_HCvar2 + 2H8_LCvar6) VH: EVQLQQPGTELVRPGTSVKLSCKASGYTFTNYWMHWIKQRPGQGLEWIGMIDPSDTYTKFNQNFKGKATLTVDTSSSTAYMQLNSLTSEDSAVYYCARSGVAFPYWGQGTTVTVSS VL: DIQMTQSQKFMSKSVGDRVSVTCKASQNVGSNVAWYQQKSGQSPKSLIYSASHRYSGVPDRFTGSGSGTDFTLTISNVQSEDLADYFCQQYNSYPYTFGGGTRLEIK ?
Solution: 15100 M⁻¹ s⁻¹

Exercise: // next record 2H8.39 (antibody, human IgG1, V domains shown, human IgG1/kappa; also called 2H8_HCvar3 + 2H8_LCvar7) VH: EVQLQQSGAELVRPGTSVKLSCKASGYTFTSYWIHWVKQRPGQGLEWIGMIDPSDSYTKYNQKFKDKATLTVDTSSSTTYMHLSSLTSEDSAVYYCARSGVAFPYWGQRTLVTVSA VL: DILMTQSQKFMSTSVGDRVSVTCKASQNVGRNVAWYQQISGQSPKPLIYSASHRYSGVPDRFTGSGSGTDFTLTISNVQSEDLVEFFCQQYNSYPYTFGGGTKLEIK
Solution: 16600 M⁻¹ s⁻¹

Exercise: What about 2H8.30 (antibody, human IgG1, V domains shown, human IgG1/kappa; also called 2H8_HCvar6 + 2H8_LCvar5) VH: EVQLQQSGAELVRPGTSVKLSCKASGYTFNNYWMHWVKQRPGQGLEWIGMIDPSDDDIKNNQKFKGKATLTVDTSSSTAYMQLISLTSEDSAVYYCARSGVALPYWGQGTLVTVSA VL: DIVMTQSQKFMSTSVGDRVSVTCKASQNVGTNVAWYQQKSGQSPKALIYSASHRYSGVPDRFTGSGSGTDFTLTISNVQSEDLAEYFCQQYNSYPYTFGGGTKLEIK ?
Solution: 12900 M⁻¹ s⁻¹

Exercise: Repeat with 2H8.05 (antibody, human IgG1, V domains shown, human IgG1/kappa; also called 2H8_HCvar5 + 2H8_LC) VH: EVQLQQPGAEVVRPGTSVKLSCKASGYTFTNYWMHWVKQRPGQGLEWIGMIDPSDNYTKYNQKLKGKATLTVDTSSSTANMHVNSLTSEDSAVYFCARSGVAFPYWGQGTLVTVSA VL: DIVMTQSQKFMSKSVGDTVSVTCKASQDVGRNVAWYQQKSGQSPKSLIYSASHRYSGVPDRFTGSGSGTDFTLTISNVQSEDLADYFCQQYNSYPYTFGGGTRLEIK
Solution: 18300 M⁻¹ s⁻¹

Exercise: # iterate: 2H8.27 (antibody, human IgG1, V domains shown, human IgG1/kappa; also called 2H8_HCvar3 + 2H8_LCvar5) VH: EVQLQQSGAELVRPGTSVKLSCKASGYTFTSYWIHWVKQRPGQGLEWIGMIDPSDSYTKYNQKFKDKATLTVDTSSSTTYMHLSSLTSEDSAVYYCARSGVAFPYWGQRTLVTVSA VL: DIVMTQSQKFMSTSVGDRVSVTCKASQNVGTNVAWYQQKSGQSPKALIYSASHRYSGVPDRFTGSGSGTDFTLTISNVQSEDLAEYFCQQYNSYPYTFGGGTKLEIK
Solution: 14100 M⁻¹ s⁻¹

Exercise: Try 2H8.19 (antibody, human IgG1, V domains shown, human IgG1/kappa; also called 2H8_HC + 2H8_LCvar4) VH: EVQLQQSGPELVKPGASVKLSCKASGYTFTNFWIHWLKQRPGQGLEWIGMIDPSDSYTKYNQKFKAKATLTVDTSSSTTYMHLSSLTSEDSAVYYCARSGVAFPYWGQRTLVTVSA VL: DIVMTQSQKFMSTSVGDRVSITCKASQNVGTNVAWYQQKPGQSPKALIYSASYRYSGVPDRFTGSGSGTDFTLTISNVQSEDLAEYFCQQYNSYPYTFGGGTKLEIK next.
Solution: 15900 M⁻¹ s⁻¹

Exercise: Follow-up item: 2H8.31 (antibody, human IgG1, V domains shown, human IgG1/kappa; also called 2H8_HC + 2H8_LCvar6) VH: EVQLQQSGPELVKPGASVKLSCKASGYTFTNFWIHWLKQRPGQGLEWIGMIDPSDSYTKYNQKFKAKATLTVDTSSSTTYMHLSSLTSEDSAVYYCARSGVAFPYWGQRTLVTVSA VL: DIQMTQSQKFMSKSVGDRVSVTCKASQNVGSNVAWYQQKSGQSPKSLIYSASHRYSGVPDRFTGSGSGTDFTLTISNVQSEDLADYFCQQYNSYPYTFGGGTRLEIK
Solution: 15200 M⁻¹ s⁻¹

Reference source for all entries: patent US20210070881A1
